tested on: NCI-H460 lung; assay: NCI-60 one-dose screen, 48 h; settings: 10 µM unless noted
The panel holds about 83,000 compounds, 20% with a hit somewhere; the sample as a whole holds those more often. Active and inactive are the calls of the source. Rule for the calls: active = growth percent below 10; inactive = the rest.
Labels: 1 (yes) for active, 0 (no) for inactive

• CCN(CC)CCCC(C)N/C(c1cccc(OC)c1)=c1\c(=O)[nH]n(-c2c3ccccc3nc3ccccc23)c(=O)\c1=C(/NC(C)CCCN(CC)CC)c1cccc(OC)c1 (stereo unspecified) = 1 (yes)
• Cc1nc2c(-c3cnc(N)nc3)nc(N3CCOCC3)nc2n1C(C)C = 0 (no)
• O=C(NO)c1ccc(NCc2csc3ccccc23)cc1 = 0 (no)
• COc1ccc2nc(NC(=O)/C(=C/c3cc(OC)c(OC)c(OC)c3)c3ccc(OC)c(OC)c3)sc2c1 = 0 (no)
• Nc1cccc(S(=O)(=O)c2cccc(N)c2)c1 = 0 (no)
• F = 0 (no)
• Nc1cc2nc3ccccc3oc-2cc1=O = 1 (yes)
• Cc1ccc(N2C3c4ccccc4N(S(=O)(=O)c4ccc(C)cc4)C2c2ccccc2N3S(=O)(=O)c2ccc(C)cc2)cc1 = 0 (no)
• Nc1nc2c(c3ncccc13)C(c1ccccc1)Cc1ncccc1-2 (stereo unspecified) = 0 (no)
• COc1ccc(-n2nc(C(=O)NCC(=O)Nc3nc4cc(OC)ccc4s3)c3ccccc3c2=O)cc1 = 1 (yes)
• Cc1[nH]nc2ccc3nc(-c4ccc5[nH]ncc5c4)c4c(c3c12)CCCC4 = 0 (no)
• COc1cccc(Cn2c(-c3nonc3NC(C)=O)nc3ccccc32)c1 = 0 (no)
• CCSc1ccc([C@@H]2[C@@H](N)C(=O)N2c2cc(OC)c(OC)c(OC)c2)cc1 = 0 (no)
• Cc1c(O)c(=O)n(-c2ccccc2)n1C = 0 (no)
• CCCCC(CCc1ccccn1)C(=O)c1ccccc1 (stereo unspecified) = 0 (no)
• Oc1ccc(CCCCCCc2ccc(O)cc2)cc1 = 0 (no)
• CCCCCCCCCCCC1=NC(C)(C)CN1C(C)(C)CO = 0 (no)
• O=C(/C=C/c1ccccc1)C(Br)C(Br)c1ccccc1 (stereo unspecified) = 0 (no)
• NC(=O)c1noc(C(=O)c2ccccc2)c1N = 0 (no)
• Cc1n(Cc2ccc3ccccc3n2)cc[n+]1Cc1ccc2ccccc2c1 = 0 (no)
• CC(CN1CCN(CCOCCO)CC1)CN1c2ccccc2Sc2ccc(Cl)cc21 (stereo unspecified) = 0 (no)

---

tested on: SNB-75 CNS; assay: NCI-60 one-dose screen, 48 h; details: 10 µM unless noted
Compounds without any hit were thinned out: in the full panel of roughly 83,000, 20% have a hit. Calls of active or inactive are those of the source. Rule for the calls: active = growth percent below 10; inactive = the rest.
Outcomes: active, inactive

- COc1ccc(C(=O)C(C#N)c2cc(OC)c(OC)c(OC)c2)cc1 (configuration not stated): inactive
- N[C@@H](CO)C(=O)O: inactive
- C/C(=N\NC(=S)Nc1ccccc1)c1ccccn1: inactive
- C=CCn1c(SCC(=O)Nc2ccc(/C(C)=N\O)cc2)nnc1-c1cc(-c2ccccc2)nc2ccccc12: inactive
- F: inactive
- Fc1cnccc1-c1nc2ccc3[nH]ncc3c2c2c1CCCC2: active
- O=C(/C=C/c1ccccc1)n1c(-c2ccccc2)nc2ccccc21: inactive
- Clc1ccc(Nc2ncnc3c2sc2ncccc23)cc1: inactive
- COc1ccc(/C(=C\c2cc(OC)c(OC)c(OC)c2)C(=O)Nc2nc3ccc(Cl)cc3s2)cc1: inactive
- O=c1cc(-c2ccc3c(c2)OCCO3)oc2cc(Cl)ccc12: active
- CN(C)c1ccc(/C=N/Nc2nnc3n2N=C(c2ccc(Cl)cc2)CS3)cc1: inactive
- O=C(O)Cn1ccc2ccccc21: inactive

---

growth listing for selected molecules.
system: NCI/ADR-RES ovarian; experiment: NCI-60 one-dose screen, 48 h (100 = growth as untreated, 0 = no growth, -100 = all killed); conditions: 10 µM unless noted
The panel holds about 83,000 compounds, 20% with a hit somewhere; the sample as a whole holds those more often.
measured-metric: growth (%)

- Brc1ccccc1Cn1c(-c2cncs2)nc2ccccc21: 83.5
- COc1ccc(/C(=C\c2cc(OC)c(OC)c(OC)c2)C(=O)N2CCNCC2)cc1: 98.3
- C#CC[C@@H]1C[C@]2(C)[C@H]3CC=C4[C@H]5[C@@H](C)[C@H](C)CC[C@]5(C(=O)NCCCN5CCN(CCCN)CC5)CC[C@@]4(C)[C@]3(C)CC[C@H]2C(C)(C)[C@H]1OC(C)=O: 61.7

---

Documented growth across a set of molecules
test system: BT-549 breast; experiment: NCI-60 one-dose screen, 48 h (100 = growth as untreated, 0 = no growth, -100 = all killed); conditions: 10 µM unless noted
Compounds without any hit were thinned out: in the full panel of roughly 83,000, 20% have a hit.
measured-metric: growth (%)

• O=C(c1ccccc1)N(CCCCl)C(=O)N(CCCCl)C(=O)c1ccccc1 = 103
• COc1cc(CN2CCO[C@H](COc3cccc(F)c3)C2)ccc1Cl = 50.2
• c1ccc2c(Cc3csc4ccccc34)csc2c1 = 92.2
• C/C(CC(=O)NNc1ccc([N+](=O)[O-])cc1)=N\Nc1ccc([N+](=O)[O-])cc1 = 99.6
• COc1cccc(Cn2c(-c3nonc3NC(C)=O)nc3ccccc32)c1 = 41.6
• COc1ccc(OC)c(Nc2nc(-c3c(C)nc4sccn34)cs2)c1 = 84.8
• Cc1nc2ccc(Nc3nc(Cl)nc(N4CCOCC4)n3)cc2n1Cc1ccccc1 = 83.7
• Cc1nc2ccc(Nc3nc(N4CCOCC4)nc(N4CCN(C)CC4)n3)cc2n1Cc1ccccc1 = 66.1
• Cc1cc(C)c2c(n1)sc1c(Nc3ccc(O)cc3)ncnc12 = 50.6
• COc1ccc(CCN2COc3c([C@@H](C)CCC=C(C)C)ccc(C)c3C2)cc1OC = 87.9
• Nc1c(C(=O)Nc2cccc(Cl)c2)sc2ncc(Br)cc12 = 68.2
• CC(=O)N[C@@H](CCC(N)=O)C(=O)O = 118
• O=C(Cc1ccc(Nc2ccnc(C(F)(F)F)c2)cc1)N/N=C/c1ccccc1O = 50.2
• CC[C@H](Nc1nc(N)nc(N)c1Cl)c1nc2cccc(NCc3ccc(C(=O)NO)cc3)c2c(=O)n1-c1ccccc1 = 37.4
• Cc1ccc(NC(=O)c2nc(S(C)=O)oc2-c2ccc(F)cc2)cc1Nc1nccc(-c2cccnc2)n1 (configuration not stated) = 26.9
• C[C@@H](C[C@H](CC1CC1)c1ccccc1)c1ccc2ccccc2c1 = 106
• CS(=O)(=O)Nc1cc(-c2cc3ncc(C#N)c(Nc4ccc(Oc5ccccc5)c(Cl)c4)c3s2)cnc1Cl = 51

---

test system: OVCAR-3 ovarian; assay: NCI-60 one-dose screen, 48 h (100 = growth as untreated, 0 = no growth, -100 = all killed); details: 10 µM unless noted
This is part of a sample that, as a whole, favours compounds with a hit. Of some 83,000 tested, about 20% had one in any assay. Calls of active or inactive are those of the source. The calls were made as follows: active = growth percent below 10; inactive = the rest.
Parameter growth: see the listing below.
measured-metric: growth

* NC(=S)N/N=C(/c1cccs1)C1CC1 | 51.5% (inactive)
* COc1ccc(-c2nn(-c3cccc(Cl)c3)cc2/C=C2\C(=N)N(c3ccccc3)N=C2N)cc1 | 38.8% (inactive)
* CCCc1n(Cc2ccc3ccccc3c2)c2ccccc2[n+]1Cc1ccc2ccccc2c1 | -76.8% (active)
* COc1cccc2nc(Nc3cccc(NC(=O)c4ccc(N5CCN(C)CC5)c(C(F)(F)F)c4)c3)ccc12 | 29.6% (inactive)
* Cc1[nH]nc2ccc3nc(-c4ccc5[nH]ncc5c4)c4c(c3c12)CCCC4 | 32.8% (inactive)
* C=CCn1c(SCC(=O)Nc2ccc(/C(C)=N\O)cc2)nnc1-c1cc(-c2ccc(Cl)cc2)nc2ccccc12 | 31.1% (inactive)
* CCOC(=O)c1ccc(NC(=O)NC2=NCCS2)cc1 | -53.7% (active)
* CC(=O)Nc1ccc(Cl)cc1Cl | 118% (inactive)
* CC1=C(C(=O)Nc2ccc(F)cc2)C(c2ccccc2)C2=C(CC(C)(C)CC2=O)N1 (stereo not drawn) | 70% (inactive)
* O=C1OCC2=C1C(c1cccc(Br)c1)c1cc3c(cc1N2CCO)OCCO3 (stereo not drawn) | -61.5% (active)
* Clc1ccc(Nc2ncnc3c2sc2ncccc23)cc1 | 56.6% (inactive)
* O=C(NO)c1ccc(NCc2csc3ccccc23)cc1 | 66.8% (inactive)
* O=C1OC(c2ccc(-c3ccccc3)cc2)=C/C1=C/c1c(Cl)cccc1Cl | 97.1% (inactive)

---

system: HT29 colon; experiment: NCI-60 one-dose screen, 48 h; conditions: 10 µM unless noted
This is part of a sample that, as a whole, favours compounds with a hit. Of some 83,000 tested, about 20% had one in any assay. Active and inactive are the calls of the source. Rule for the calls: active = growth percent below 10; inactive = the rest.
Possible outcomes: active, inactive

* Cn1nc(C(F)(F)F)cc1-c1c[nH]c(OCc2ccc(Cl)cc2)c(-c2ccc(Cl)c(C(F)(F)F)c2)c1=O | active
* Cc1ccc(-c2cnc3sc4ccc(Cl)cc4n23)cc1 | inactive
* C[C@@H]1C[C@H](N)C[C@H](c2ccncc2NC(=O)c2ccc(F)c(-c3c(F)cccc3F)n2)C1 | inactive
* COc1cc(C2C=C(C)N=C3SC=NN32)cc(OC)c1OC (stereo not drawn) | inactive
* Cc1ccc2nc(CN(CCN(Cc3nc4ccc(C)cc4[nH]3)Cc3nc4ccc(C)cc4[nH]3)Cc3nc4ccc(C)cc4[nH]3)[nH]c2c1 | active
* Clc1ncnc2scc(C3COc4ccccc4O3)c12 (stereo not drawn) | inactive
* CCc1oc2ccccc2c1C(=O)c1cc(I)c(O)c(I)c1 | inactive
* c1ccc(-c2[nH]c3ccccc3c2-c2ccccc2)cc1 | inactive
* COC(=O)c1cc(Cl)cc([N+](=O)[O-])c1O | inactive
* COc1ccccc1/C=N\NC(=S)Nc1ccc(F)cc1 | inactive
* CN(C)c1ccc(C(c2ccccc2)c2ccc(N(C)C)cc2)cc1 | inactive
* C=CCN(CCOC(=O)c1ccc([N+](=O)[O-])cc1)CCOC(=O)c1ccc([N+](=O)[O-])cc1 | inactive
* C/C(CC(=O)NNc1ccc([N+](=O)[O-])cc1)=N\Nc1ccc([N+](=O)[O-])cc1 | inactive
* COc1c(B(O)O)cccc1-c1nc2ccc3[nH]ncc3c2c2c1CCCC2 | inactive
* CSCCC1NC(=O)C(C(C)=Nc2ccccc2)=C1O (stereo not drawn) | inactive
* Nc1nc2ccc([C@@H]3Nc4ccc5[nH]ncc5c4[C@H]4[C@H]5CCC(C5)[C@H]43)cc2s1 | active
* CC(=O)c1cc(C(=O)c2ccc3c(c2)Sc2ccccc2N3)c2c(C)cccn12 | inactive
* Cc1nc2ccc(Nc3nc(NCCN4CCOCC4)nc(Nc4ccc(F)cc4)n3)cc2n1Cc1ccccc1 | active
